test system: E. coli TESEC Mtb DapB; assay: growth (OD600 after 10 h); higher = more growth (less inhibition); conditions: arabinose induction (level): High; compound 0.1 mM; raw OD600 reference: median of DMSO wells […], cell-free background 0.041
Structures can show the parent of a compound that is named as a salt.
METRIC: growth

• O=C(N/N=C/c1ccc([N+](=O)[O-])o1)c1ccc(O)cc1 [Nifuroxazide] = 0.0553
• COc1c2occc2c(OC)c2c(=O)cc(C)oc12 = 0.182
• Clc1cccc(Cl)c1NC1=NCCN1 [Clonidine hydrochloride] = 0.195
• CNCCC=C1c2ccccc2CCc2ccccc21 [Nortriptyline hydrochloride] = 0.185
• COC(=O)N/N=C/c1c[n+]([O-])c2ccccc2[n+]1[O-] = 0.163
• CCN(CC)CCNC(=O)c1cc(Br)c(N)cc1OC [Bromopride] = 0.196
• CCOC(=O)C1=C(COCCN)NC(C)=C(C(=O)OC)C1c1ccccc1Cl (centres undefined) = 0.155
• CC1(C)O[C@@H]2C[C@H]3[C@@H]4CCC5=CC(=O)CC[C@]5(C)[C@@]4(F)[C@@H](O)C[C@]3(C)[C@]2(C(=O)CCl)O1 [Halcinonide] = 0.188
• NS(=O)(=O)c1cc2c(cc1Cl)NC(CC1CCCC1)NS2(=O)=O (centres undefined) [Cyclopenthiazide] = 0.212

----------
system: E. coli TESEC Alr+ wild-type control; assay: growth (OD600 after 10 h); higher = more growth (less inhibition); conditions: compound 0.1 mM; raw OD600 reference: median of DMSO wells 0.241, cell-free background 0.041
Where a name gives a salt, the structure may show the parent alone.
Decision: growth >= 0.2 yields T, all other cases yield F.

* COC(=O)C1=C(C)NC(C)=C(C(=O)OC2CCCN(Cc3ccccc3)C2)C1c1cccc([N+](=O)[O-])c1 (centres undefined) [Benidipine hydrochloride] | F
* O=C(NCCN1CCOCC1)c1ccc(Cl)cc1 [Moclobemide] | T
* COC(=O)Nc1nc2cc(C(=O)c3ccc(F)cc3)ccc2[nH]1 | T
* CCC1(c2ccccc2)NC(=O)N(C)C1=O (centres undefined) | T
* CCCC1O[C@@H]2C[C@H]3[C@@H]4CCC5=CC(=O)C=C[C@]5(C)[C@H]4[C@@H](O)C[C@]3(C)[C@]2(C(=O)CO)O1 (some centres undefined) [Budesonide] | F
* CC(N)CCCC(C)(C)O (centres undefined) [Heptaminol hydrochloride] | T
* CC(Oc1ccccc1)C(=O)N[C@@H]1C(=O)N2[C@@H]1SC(C)(C)[C@@H]2C(=O)O (some centres undefined) [Phenethicillin potassium salt] | T
* N=C(N)NC(=N)NCCc1ccccc1 [Phenformin hydrochloride] | T
* CC1(C)O[C@@H]2C[C@H]3[C@@H]4CCC5=CC(=O)C=C[C@]5(C)[C@H]4[C@@H](O)C[C@]3(C)[C@]2(C(=O)CO)O1 [Desonide] | F
* Cn1c(=O)c2nc[nH]c2n(C)c1=O [Theophylline monohydrate] | T
* CC1(C)OC(=O)NC1=O | T
* CCN(CC)CCOC(=O)c1ccc(N)cc1 [Procaine hydrochloride] | T
* O=c1cc(-c2ccc(O)c(O)c2)oc2cc(O)cc(O)c12 | F
* CC(=O)O[C@H]1C[C@@H]2CC[C@@H]3[C@H](CC[C@@]4(C)[C@H]3C[C@H]([N+]3(C)CCCCC3)[C@@H]4OC(C)=O)[C@@]2(C)C[C@@H]1N1CCCCC1 [Vecuronium bromide] | F
* C[N+]1(C)CCC(OC(=O)C(O)(c2ccccc2)C2CCCC2)C1 (centres undefined) [Glycopyrrolate] | T
* CC[N+](C)(CC)CCOC(=O)C1c2ccccc2Oc2ccccc21 [Methantheline bromide] | F
* CNNCc1ccc(C(=O)NC(C)C)cc1 [Procarbazine hydrochloride] | T
* CCCCNc1cc(C(=O)O)cc(S(N)(=O)=O)c1Oc1ccccc1 [Bumetanide] | T
* CCOC(=O)[C@H](CCc1ccccc1)N[C@H]1CCc2ccccc2N(CC(=O)O)C1=O [Benazepril HCl] | T
* CN1CCN(C(c2ccccc2)c2ccccc2)CC1 [Cyclizine hydrochloride] | T
* CCCCC(O)c1ccccc1 (centres undefined) | T
* CN(C)CC/C=C1/c2ccccc2COc2ccc(CC(=O)O)cc21 [Olopatadine hydrochloride] | T
* CC[C@H](C)C(=O)O[C@H]1CCC=C2C=C[C@H](C)[C@H](CC[C@@H]3C[C@@H](O)CC(=O)O3)[C@H]21 | F
* NCc1ccc(S(N)(=O)=O)cc1 [Mafenide hydrochloride] | T
* CN1CCN(CC(=O)N2c3ccccc3C(=O)Nc3cccnc32)CC1 [Pirenzepine dihydrochloride] | T
* CCCCCCCN(CC)CCCC(O)c1ccc(NS(C)(=O)=O)cc1 (centres undefined) [Ibutilide fumarate] | T
* COCCc1ccc(OCC(O)CNC(C)C)cc1 (racemic) [Metoprolol-(+,-) (+)-tartrate salt] | T
* CN(C)CCOC(c1ccccc1)c1ccccc1 [Diphenhydramine hydrochloride] | T
* Oc1c(I)cc(Cl)c2cccnc12 | F
* CN(C)/N=N/c1[nH]cnc1C(N)=O | T
* COc1ccc(C(Cl)=C(c2ccc(OC)cc2)c2ccc(OC)cc2)cc1 | T
* Oc1ncnc2[nH]ncc12 | T

From: the supplement of paper PMC9262897
